protocol.details: Selectivity ratio of IC50 for ADAMTS5 (unknown origin) to IC50 for ADAMTS7 (unknown origin)
property.label: Ratio IC50

Cc1ccc(-c2ccccc2C(=O)NC[C@@]2(C3CC3)NC(=O)NC2=O)cc1 : 213
Cn1nccc1[C@]1(CNC(=O)c2ccc(F)c(F)c2-c2ccc(C(F)(F)F)cc2)NC(=O)NC1=O : 1650
Cn1nc(-c2ccccc2)cc1C1(CNC(=O)c2ccc(F)c(F)c2-c2ccc(C(F)(F)F)cc2)NC(=O)NC1=O (stereo not given) : 12700

A = Cn1nccc1[C@]1(CNC(=O)c2ccccc2-c2ccc(C(F)(F)F)cc2)NC(=O)NC1=O
B = O=C1NC(=O)[C@](CNC(=O)c2cnn(-c3ccc(F)cc3)n2)(C2CC2)N1
When the recorded Ratio IC50 values are compared, which is smaller: that of A or that of B ? Bench note: the answer is the label of the chosen record.
A

---

measured.on: A disintegrin and metalloproteinase with thrombospondin motifs 7 (Homo sapiens, UniProt Q9UKP4)
Sequence (Q9UKP4 whole entry): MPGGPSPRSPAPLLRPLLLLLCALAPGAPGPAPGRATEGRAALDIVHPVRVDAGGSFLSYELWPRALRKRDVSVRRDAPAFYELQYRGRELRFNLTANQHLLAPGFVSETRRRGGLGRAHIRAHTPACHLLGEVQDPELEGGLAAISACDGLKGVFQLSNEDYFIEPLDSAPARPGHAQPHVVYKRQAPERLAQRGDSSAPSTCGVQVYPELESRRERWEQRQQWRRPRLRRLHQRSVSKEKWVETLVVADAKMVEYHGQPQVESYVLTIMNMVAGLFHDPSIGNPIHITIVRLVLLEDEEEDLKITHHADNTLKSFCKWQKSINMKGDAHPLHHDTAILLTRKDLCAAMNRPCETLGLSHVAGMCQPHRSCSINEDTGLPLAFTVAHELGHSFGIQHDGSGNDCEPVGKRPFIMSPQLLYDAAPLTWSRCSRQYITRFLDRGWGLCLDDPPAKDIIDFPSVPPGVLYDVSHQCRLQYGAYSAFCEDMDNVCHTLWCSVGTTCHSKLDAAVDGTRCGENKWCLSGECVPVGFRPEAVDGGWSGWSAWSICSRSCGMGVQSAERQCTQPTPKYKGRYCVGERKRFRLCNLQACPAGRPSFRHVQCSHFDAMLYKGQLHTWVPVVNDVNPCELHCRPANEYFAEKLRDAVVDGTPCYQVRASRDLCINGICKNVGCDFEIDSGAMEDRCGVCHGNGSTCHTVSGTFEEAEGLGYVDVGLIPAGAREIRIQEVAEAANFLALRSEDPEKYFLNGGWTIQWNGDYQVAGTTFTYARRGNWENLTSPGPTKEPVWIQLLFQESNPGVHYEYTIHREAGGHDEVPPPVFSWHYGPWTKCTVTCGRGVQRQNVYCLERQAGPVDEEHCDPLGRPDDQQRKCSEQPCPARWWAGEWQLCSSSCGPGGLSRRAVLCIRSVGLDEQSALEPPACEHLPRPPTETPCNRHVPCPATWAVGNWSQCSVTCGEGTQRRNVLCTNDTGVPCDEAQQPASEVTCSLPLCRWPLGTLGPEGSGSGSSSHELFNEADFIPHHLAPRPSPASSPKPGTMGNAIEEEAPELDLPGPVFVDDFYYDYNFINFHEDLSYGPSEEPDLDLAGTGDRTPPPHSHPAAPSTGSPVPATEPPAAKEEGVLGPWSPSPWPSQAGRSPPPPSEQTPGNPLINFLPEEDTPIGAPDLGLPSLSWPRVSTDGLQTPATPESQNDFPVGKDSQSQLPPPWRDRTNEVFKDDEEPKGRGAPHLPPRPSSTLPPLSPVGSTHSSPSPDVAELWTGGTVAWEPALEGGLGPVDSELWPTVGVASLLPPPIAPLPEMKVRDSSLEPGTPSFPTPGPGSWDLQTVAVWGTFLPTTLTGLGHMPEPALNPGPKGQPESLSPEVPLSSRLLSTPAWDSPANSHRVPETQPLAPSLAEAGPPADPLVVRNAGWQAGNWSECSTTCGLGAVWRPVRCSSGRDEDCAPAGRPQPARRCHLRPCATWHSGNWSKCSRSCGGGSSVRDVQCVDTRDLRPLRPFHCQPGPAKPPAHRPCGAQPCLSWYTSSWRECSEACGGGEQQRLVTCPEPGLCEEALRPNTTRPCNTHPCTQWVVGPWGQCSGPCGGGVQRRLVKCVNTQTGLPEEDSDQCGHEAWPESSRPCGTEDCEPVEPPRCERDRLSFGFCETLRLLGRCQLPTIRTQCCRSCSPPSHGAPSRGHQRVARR
protocol.details: Inhibition of recombinant ADAMTS7 (unknown origin) using HiLyteFluor-488 DELSSMVLELRGLRT-K(QXL520)-E-NH2 as substrate incubated for 120 mins by FRET assay
pIC50: −log10 of the molar value.
property.label: pIC50

Solved entries (count: 3):
O=C1NC(=O)[C@](CNC(=O)c2cnn(Cc3ccc(Cl)cc3)c2)(C2CC2)N1 : 6.55
Cc1ccc(-c2ccc(C(=O)NC[C@@]3(C4CC4)NC(=O)NC3=O)cc2)cc1 : 6.24
Cn1nccc1[C@]1(CNC(=O)c2cccc(F)c2-c2ccc(C(F)(F)F)cc2)NC(=O)NC1=O : 8.30

P = Cn1nccc1[C@]1(CNC(=O)c2cccc(Cl)c2-c2ccc(C(F)(F)F)cc2)NC(=O)NC1=O
Q = Cc1cn(-c2ccccc2)nc1C1(CNC(=O)c2ccc(F)c(F)c2-c2ccc(C(F)(F)F)cc2)NC(=O)NC1=O (configuration not stated)
Higher pIC50 between P and Q ? Bench note: the answer is the label of the chosen record.
Q

---

protocol.details: Lipophilicity, logD of compound at pH 7.5
Type: physicochemical
test.conditions: buffer
property.label: logD
The reply should be a number, written without any unit.

Specify logD for Cn1nccc1[C@]1(CNC(=O)c2ccc(F)c(F)c2-c2ccc(C(F)(F)F)cc2)NC(=O)NC1=O and stop.
3.2

---

protocol.details: Selectivity ratio of IC50 for ADAMTS12 (unknown origin) to IC50 for ADAMTS7 (unknown origin)
property.label: Ratio IC50

Solved entries (count: 4):
Cc1cn(-c2ccccc2)nc1C1(CNC(=O)c2ccc(F)c(F)c2-c2ccc(C(F)(F)F)cc2)NC(=O)NC1=O (stereo not drawn) : 14
O=C1NC(=O)[C@](CNC(=O)c2cnn(-c3ccccc3)n2)(C2CC2)N1 : 0.2
Cc1sc(-c2ccccc2)nc1C1(CNC(=O)c2ccc(F)c(F)c2-c2ccc(C(F)(F)F)cc2)NC(=O)NC1=O (stereo not drawn) : 10
Cc1sc(-c2cccnc2)nc1C1(CNC(=O)c2ccc(F)c(F)c2-c2ccc(C(F)(F)F)cc2)NC(=O)NC1=O (stereo not drawn) : 14

I = O=C1NC(=O)[C@](CNC(=O)c2cnn(-c3ccc(F)cc3)n2)(C2CC2)N1
II = Cn1nccc1[C@]1(CNC(=O)c2ccccc2-c2ccc(C(F)(F)F)cc2)NC(=O)NC1=O
Higher Ratio IC50 between I and II ? Bench note: the answer is the label of the chosen record.
I
(I: 26, II: 1)
